Exercise: for every item that follows, state its recorded IC50.
target: Abl kinase (Homo sapiens, UniProt P00519); experiment: biochemical; details: Abl IC50 (nM), Abl kinase (Invitrogen, 20 ng/well), Abltide 100 μM, ATP 500 nM, 37° C. for 60 minutes, top concentration 10 uM
Where a name gives a salt, the structure may show the parent alone.

Any idea what its IC50 is? The compound is Nc1nc2ccc(/C=C/c3cnc(Nc4ccc(S(=O)(=O)N5CCNCC5)c(N5CCNCC5)c4)nc3)cc2s1
318 nM

Any idea what its IC50 is? The compound is O=S(=O)(c1ccc(Nc2ncc(/C=C/c3cccc(O)c3)cn2)cc1)N1CCNCC1
4.1 nM

Any idea what its IC50 is? The compound is NCC(=O)N1CCC(S(=O)(=O)c2ccc(Nc3ncc(/C=C/c4cccc5[nH]ccc45)cn3)cc2)CC1 [hydrochloride]
66 nM

Any idea what its IC50 is? The compound is Nc1cccc(/C=C/c2cnc(Nc3ccc(S(=O)(=O)C4CCNCC4)cc3)nc2)n1 [Hydrochloride]
56 nM

Any idea what its IC50 is? The compound is Nc1nc2ccc(/C=C/c3cnc(Nc4ccc(OC5CCNCC5)cc4)nc3)cc2s1
259 nM

Any idea what its IC50 is? The compound is Nc1nc2ccc(/C=C/c3cnc(Nc4ccc(S(=O)(=O)N5CCC(N)CC5)cc4)nc3)cc2s1
42 nM

Any idea what its IC50 is? The compound is N#Cc1ccc(Nc2ncc(/C=C/c3cccc4[nH]ccc34)cn2)cc1
174 nM

Any idea what its IC50 is? The compound is Nc1nc2ccc(/C=C/c3cnc(Nc4ccc(S(=O)(=O)CCCN5CCCC5)cc4)nc3)cc2s1 [trifluoroacetic acid salt]
81 nM

----------
molecular target: Abl (T315I) (Homo sapiens, UniProt P00519, T315I); construct: purchased Upstate; assay: Abl (T315I) Kinase Assay (KinaseGlo luminescent detection of residual ATP); assay type: biochemical; settings: Abl (T315I) IC50 (nM), Abl (T315I) (Upstate, 17 ng/well), Abltide 100 uM, ATP 500 nM, 60 minutes at 37° C.
Counter-ions that a name gives are not always drawn.
Exercise: for every item that follows, state its recorded log10(IC50).
Lab note - IC50 converted to log10 from values in nM.

Any idea what its log10(IC50) is? The compound is Nc1nc2ccc(/C=C/c3cnc(Nc4ccc(S(=O)(=O)N5CCNCC5)c(NCCO)c4)nc3)cc2s1
2.19

Any idea what its log10(IC50) is? The compound is O=S(=O)(c1ccc(Nc2ncc(/C=C/c3cc(C(F)(F)F)cc4[nH]nnc34)cn2)cc1)N1CCCNCC1
1.83

Any idea what its log10(IC50) is? The compound is O=S(=O)(c1ccc(Nc2ncc(/C=C/c3ccc(-c4nnn[nH]4)cc3)cn2)cc1)C1CCNCC1 [hydrochloride]
3.62

Any idea what its log10(IC50) is? The compound is O=S(=O)(CC1CCNCC1)c1ccc(Nc2ncc(/C=C/c3cccc(O)c3)cn2)cc1
1.98

Any idea what its log10(IC50) is? The compound is Nc1nc2ccc(/C=C/c3cnc(Nc4ccc(S(=O)(=O)C5CCNCC5)cc4)nc3)cc2[nH]1
2.23

Any idea what its log10(IC50) is? The compound is CN(C)CCN(C1CCNCC1)S(=O)(=O)c1ccc(Nc2ncc(/C=C/c3ccc4nc(N)sc4c3)cn2)cc1
1.58

Any idea what its log10(IC50) is? The compound is Nc1nc2ccc(/C=C/c3cnc(Nc4ccc(S(=O)(=O)C5CCNCC5)cc4)nc3)cc2s1 [trifluoroacetic acid salt]
1.76

Any idea what its log10(IC50) is? The compound is O=S(=O)(c1ccc(Nc2ncc(/C=C/c3cccc4[nH]ccc34)cn2)cc1)N1CCNCC1
2.65

Any idea what its log10(IC50) is? The compound is Nc1nc2c(/C=C/c3cnc(Nc4ccc(S(=O)(=O)C5CCNCC5)cc4)nc3)cccc2s1 [Hydrochloride]
2.60

Any idea what its log10(IC50) is? The compound is O=C(Nc1ccc(/C=C/c2cnc(Nc3ccc(S(=O)(=O)C4CCNCC4)cc3)nc2)cc1)c1cccc(C(F)(F)F)c1 [Hydrochloride]
3.00

Any idea what its log10(IC50) is? The compound is O=S(=O)(c1ccc(Nc2ncc(/C=C/c3cccc4[nH]ncc34)cn2)cc1N1CCNCC1)N1CCNCC1
2.53

Any idea what its log10(IC50) is? The compound is O=S(=O)(c1ccc(Nc2ncc(/C=C/c3cccc(C(F)F)c3)cn2)cc1)C1CCNCC1
2.69

Any idea what its log10(IC50) is? The compound is C(=C\c1cccc2[nH]ccc12)/c1cnc(Nc2cccc(N3CCNCC3)c2)nc1
3.41

Any idea what its log10(IC50) is? The compound is Oc1ccc(Cl)c(/C=C/c2cnc(Nc3ccc(OCCN4CCCC4)cc3)nc2)c1 [hydrochloride]
2.99

Any idea what its log10(IC50) is? The compound is O=S(=O)(c1ccc(Nc2ncc(/C=C/c3cccc(O)c3)cn2)cc1NCCO)N1CCNCC1 [trifluoroacetic acid salt]
1.89

Any idea what its log10(IC50) is? The compound is O=S(=O)(NCCN1CCCC1)c1ccc(Nc2ncc(/C=C/c3cccc4[nH]ccc34)cn2)cc1
2.87

Any idea what its log10(IC50) is? The compound is Nc1cccc(/C=C/c2cnc(Nc3ccc(S(=O)(=O)C4CCNCC4)cc3)nc2)n1 [Hydrochloride]
3.08

Any idea what its log10(IC50) is? The compound is O=S(=O)(NC1CCNCC1)c1ccc(Nc2ncc(/C=C/c3cccc(O)c3)cn2)cc1 [Hydrochloride]
1.56

Any idea what its log10(IC50) is? The compound is O=C(Nc1ccc(Cl)c(/C=C/c2cnc(Nc3ccc(S(=O)(=O)C4CCNCC4)cc3)nc2)c1)c1cccc(C(F)(F)F)c1
3.30

Any idea what its log10(IC50) is? The compound is O=S(=O)(c1ccc(Nc2ncc(/C=C/c3cc(C(F)(F)F)cc4[nH]nnc34)cn2)cc1)C1CCNCC1
1.85

Any idea what its log10(IC50) is? The compound is Nc1cn2cc(/C=C/c3cnc(Nc4ccc(S(=O)(=O)C5CCNCC5)cc4)nc3)ccc2n1 [trifluoroacetic acid salt]
2.13

Any idea what its log10(IC50) is? The compound is N=C(N)c1cccc(/C=C/c2cnc(Nc3ccc(S(=O)(=O)C4CCNCC4)cc3)nc2)c1
4.72

Any idea what its log10(IC50) is? The compound is Nc1nc2ccc(/C=C/c3cnc(Nc4ccc(CCCN5CCCC5)cc4)nc3)cc2s1
3.98

Any idea what its log10(IC50) is? The compound is O=S(=O)(c1ccc(Nc2ncc(/C=C/c3cc(Cl)cc4[nH]nnc34)cn2)cc1)N1CCCNCC1
1.20

Any idea what its log10(IC50) is? The compound is Nc1nc2ccc(/C=C/c3cnc(Nc4ccc(S(=O)(=O)N5CCC(NCCO)CC5)cc4)nc3)cc2s1
2.16

Any idea what its log10(IC50) is? The compound is Nc1nc2ccc(/C=C/c3cnc(Nc4ccc([S+]([O-])CCN5CCOCC5)cc4)nc3)cc2s1 (stereo not drawn)
2.45

Any idea what its log10(IC50) is? The compound is O=S(=O)(c1ccc(Nc2ncc(/C=C/c3cc(C(F)(F)F)cc4[nH]nnc34)cn2)cc1)N1CCNCC1
1.95

Any idea what its log10(IC50) is? The compound is C(=C\c1cccc2[nH]ncc12)/c1cnc(Nc2ccc(OC3CCNCC3)cc2)nc1 [trifluoroacetic acid salt]
2.23

Any idea what its log10(IC50) is? The compound is Nc1nc2ccc(/C=C/c3cnc(Nc4ccc(S(=O)(=O)N5CCC(N)CC5)cc4)nc3)cc2s1
1.32

Any idea what its log10(IC50) is? The compound is Cc1cccc(/C=C/c2cnc(Nc3ccc(S(=O)(=O)C4CCNCC4)cc3)nc2)c1 [TFA]
2.75

Any idea what its log10(IC50) is? The compound is O=C(c1ccc(Nc2ncc(/C=C/c3cccc4[nH]ncc34)cn2)cc1)N1CCNCC1 [hydrochloride]
2.36

Any idea what its log10(IC50) is? The compound is O=S(=O)(CCCN1CCCC1)c1ccc(Nc2ncc(/C=C/c3cccc4[nH]ncc34)cn2)cc1
2.09

Any idea what its log10(IC50) is? The compound is Nc1nc2ccc(/C=C/c3cnc(Nc4ccc(S(=O)(=O)N5CCNCC5)c(F)c4)nc3)cc2s1
1.97

Data provenance: patent US20070149508A1
